Please go through the items and note down their IC50.
Target: T1, mouse PD-L1 protein (G&P Biosciences, cat #FCL3502B) (mouse, UniProt Q9EP73 19-239, limits assumed)
T1 construct: Bought protein; construct not described; also called mPD-L1 protein
T1 sequence (Q9EP73 19-239 limits assumed): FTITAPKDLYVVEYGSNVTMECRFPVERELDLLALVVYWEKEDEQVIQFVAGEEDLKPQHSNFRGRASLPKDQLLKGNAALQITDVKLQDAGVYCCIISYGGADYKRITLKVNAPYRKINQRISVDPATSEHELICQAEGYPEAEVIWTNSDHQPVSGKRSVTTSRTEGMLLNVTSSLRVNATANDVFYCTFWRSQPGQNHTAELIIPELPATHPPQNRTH
Experiment: blocking of the mouse PD-1/PD-L1 interaction (text value, differs from Table 3); text of paragraph 79, not Table 3
No end group written: not given here.
One number for each entry, in nM.

binder="WHRSYYTWNLNT (not fully specified, 12-mer from phage display) [CLP002 peptide]" recorded_measurement=1510

Now look at this one.
Look up and state reported IC50 for WHFSYNWRWLPP (not fully specified, 12-mer from phage display) [CLP003 peptide]
1960
